Target: human Syk (GST-Syk) (Homo sapiens)
Construct: A cDNA fragment encoding human Syk openreading frame was cloned; made in house; host or cells: Sf21 insect cells (baculovirus, transfer vector pAcG2T)
Assay: Syk tyrosine kinase inhibitory assay
Assay type: biochemical
Details: Table 14; read-out: Activity grade
pIC50: −log10 of the molar value.
readout.type: pIC50

Before answering, review these 2 worked examples.
smi	result
COc1ccc(-c2cc3nccn3c(Sc3ccncc3C(=O)O)n2)cc1OC	> 6.30
COc1ccc(-c2cc3nccn3c(Sc3ccc(C(F)(F)F)cn3)n2)cc1OC	> 6.30

Problem: Fill in: pIC50 of "COc1ccc(-c2cc3nccn3c(Sc3ccc(SCC(=O)O)cc3)n2)cc1OC" is ___
Solution: > 6.30

The measured values listed here are drawn from patent US6911443B2.
